target_under_test: CXCR-4 transfected U87 cell line (U87.CXCR4) (Homo sapiens, UniProt P61073)
Sequence (P61073 whole entry): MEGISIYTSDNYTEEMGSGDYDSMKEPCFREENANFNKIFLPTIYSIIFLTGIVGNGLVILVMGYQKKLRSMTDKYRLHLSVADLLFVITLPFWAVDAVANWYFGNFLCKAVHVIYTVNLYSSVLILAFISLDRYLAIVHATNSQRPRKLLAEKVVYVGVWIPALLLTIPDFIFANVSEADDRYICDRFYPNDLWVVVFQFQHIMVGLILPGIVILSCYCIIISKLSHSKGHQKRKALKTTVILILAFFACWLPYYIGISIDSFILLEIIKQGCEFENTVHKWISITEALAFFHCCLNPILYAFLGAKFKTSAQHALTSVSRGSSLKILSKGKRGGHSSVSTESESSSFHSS
measurement_protocol: Intracellular CXCL-12-induced calcium mobilization assay (FLIPR)
run_conditions: U87.CXCR4 cells; CXCL-12 25-50 ng/mL; compound added 15 min before; read-out: IC50 CXCL-12 Ca^2+ flux U87.CXCR4+
pIC50: −log10 of the molar value.
Exercise: state measured pIC50 for each of the molecules provided.

Take a look at these entries with their results.
smiles_entry=Clc1cccnc1[C@@H]1CCC[C@H](c2nc3cccc(N4CCN(C5CC5)CC4)c3[nH]2)N1 measure_name=pIC50 measured_value="7.00 to 11.00"
smiles_entry=Cc1cccnc1[C@@H]1CCC[C@H](c2nc3cccc(N4CCN(C(C)C)CC4)c3[nH]2)N1C measure_name=pIC50 measured_value="7.00 to 11.00"
smiles_entry=COc1cccnc1[C@@H]1CCC[C@H](c2nc3cccc(N4CCN(C)CC4)c3[nH]2)N1C measure_name=pIC50 measured_value="7.00 to 11.00"

Incoming: Which pIC50 reading was recorded for the molecule Cc1ccnnc1[C@@H]1CCC[C@H](c2nc3cccc(N4CCN(C)CC4)c3[nH]2)N1C ?
Outgoing: ≤ 6.00

From: patent US10988465B2
